Give TGI for every item shown.
Test system: UO-31 renal
Experiment: NCI tumour cell line growth inhibition, 48 h
Where a SMILES comes first, the peptide text is derived from it. [ ]: non-standard residue; d: D form. The star is where a group is joined. ξ: configuration not given here. ξD = NC(CC(=O)O)C(=O)O; Boc = CC(C)(C)OC(=O)*; Aib = CC(C)(N)C(=O)O; OtBu = CC(C)(C)O*

For every listed record, write down its TGI.
1. N#C/C(=C\Nc1ccccn1)C(=O)C1CC1
2. CC(CO)CCNc1ncnc2c1ncn2CCC#N (stereo unspecified)
3. Cc1n[nH]c(=S)n1/N=C/c1ccc(-c2ccc(Cl)cc2)o1

Result block:
> 100 µM
> 100 µM
> 100 µM

For every listed record, write down its TGI.
1. CC(=O)OC(C[C@H](C)[C@@H]1CC[C@]2(C)C3=CCC4C(C)(C)C(=O)CC[C@]4(C)C3CCC12C)C1OC1(C)C (stereo partly specified)
2. COC(=O)C(=O)C(C(=O)C(=O)Nc1ccc([N+](=O)[O-])cc1[N+](=O)[O-])c1nc2ccc(Cl)cc2[nH]c1=O (stereo unspecified)
3. O=C(Cc1ccccc1CCO)NCCc1ccccc1
4. COC(=O)C(C)(C)NC(=O)C(C)(C)NC(=O)C(CC(=O)OC(C)(C)C)NC(=O)OC(C)(C)C (stereo unspecified) (Boc-[ξD](OtBu)-[Aib]-[Aib]-OMe)
5. OCCCCOC(c1ccccc1)(c1ccccc1)c1ccccc1
6. CC(C)OP(=O)(OC(C)C)c1ncc(-c2ccc(C(F)(F)F)cc2)c(NC2CCCCCC2)n1

Result block:
1. 25.8 µM
2. > 100 µM
3. > 100 µM
4. > 100 µM
5. > 100 µM
6. > 10 µM

For every listed record, write down its TGI.
1. CC12CCCCC1C(=O)C2(Cl)Cl (stereo unspecified)
2. O=C1CSC(c2ccc([N+](=O)[O-])cc2)N1c1nc(-c2ccc3c(c2)CCCC3)cs1 (stereo unspecified)
3. NCCNC1=CC(=O)c2nc3ccccc3c3ccnc1c23
4. O=C(O)C1CCC(=O)N1C(=O)C(Cl)c1ccccc1 (stereo unspecified)

Result block:
1. 5.23 µM
2. > 100 µM
3. > 20.5 µM
4. > 100 µM

For every listed record, write down its TGI.
1. COc1cc(OC)c2nc3occc3c(OC)c2c1
2. Nc1nc(/C=C\c2ccc([N+](=O)[O-])s2)nc(N2CCOCC2)n1
3. COc1ccc(OC)c2c1C=C[C@H](C1(C)SCCS1)C2C(C)=O (stereo partly specified)
4. CC(C)CC(NC(=O)C(Cc1ccccc1)NC(=O)[C@H]1CC[C@H](NC(=O)C(Cc2ccc(OC(C)(C)C)cc2)NC(=O)OC(C)(C)C)C1)C(N)=O (stereo partly specified)
5. CCOP(=O)(CN1CCNCCN(CP(=O)(OCC)OCC)CC1)OCC
6. O=C(CCN1CCOCC1)c1ccc(Oc2ccc(F)cc2)cc1

Result block:
> 100 µM
30.1 µM
59.7 µM
> 100 µM
> 100 µM
38.3 µM

For every listed record, write down its TGI.
1. O=C1NC(=O)C(c2c[nH]c3cc(Br)ccc23)=C1c1cnc[nH]1
2. C#CCCCCC#Cc1ccccc1C(=O)C=[N+]=[N-]

Result block:
1. > 100 µM
2. > 100 µM
